Tested on: 293T cells
protocol_description: Cell survival rate determination (CCK-8)
Type: cell-based
particulars: cell survival rate of YK-107 minus that of named substance
I'd appreciate it if you marked entries 1 when cell survival rate lower than that of YK-107 is lower than 20% and -1 when it is not.

{"molecule": "CCCCCCCCC(CCCCCC)C(=O)OCCCCCCN(CCCCO)CCCCCCOC(=O)C(CCCCCC)CCCCCCCC (centres unmarked) [ALC-0315, reference compound]", "class": -1}
{"molecule": "CCCCCCCCCCOC(=O)CCCN(CCCCCC(=O)OCCC(CCCCCC)CCCCCC)C[C@H](O)CO", "class": -1}
{"molecule": "CCCCCCCCCCOC(=O)CCCN(CCCCCC(=O)OCCC(CCCCCC)CCCCCC)CCOCCOCCO", "class": 1}
{"molecule": "CCCCCCCCCCCOC(=O)CCCCCN(CCO)CCCCCCCC(=O)OC(CCCCCCCC)CCCCCCCC [SM-102, reference compound]", "class": -1}
{"molecule": "CCCCCCCCCCOC(=O)CCCN(CCCCCC(=O)OCCC(CCCCCC)CCCCCC)CCOC(=O)CCCN(C)C", "class": -1}
{"molecule": "CCCCCCCCCCOC(=O)CCCCCN(CCO)CCCCCC(=O)OCCC(CCCCCC)CCCCCC", "class": -1}
{"molecule": "CCCCCCCCCCOC(=O)CCCN(CCCCCC(=O)OCCC(CCCCCC)CCCCCC)CCC(C)(C)O", "class": 1}
{"molecule": "CCCCCCCCCCOC(=O)CCCN(CCCO)CCCCCC(=O)OCCC(CCCCCC)CCCCCC", "class": -1}

---

System: 293T cells
protocol_description: Cell survival rate determination (CCK-8)
Type: cell-based
particulars: LNP formulation containing 1.5 μg Fluc-mRNA, 24 hours, CCK-8, absorbance at 450 nm

{"molecule": "CCCCCCCCCCOC(=O)CCCN(CCCCCC(=O)OCCC(CCCCCC)CCCCCC)C[C@H](O)CO", "Cell survival rate (%)": 67.96}
{"molecule": "CCCCCCCCCCOC(=O)CCCN(CCCCCC(=O)OCCC(CCCCCC)CCCCCC)C[C@@H](O)CO", "Cell survival rate (%)": 59.07}
{"molecule": "CCCCCCCCCCCOC(=O)CCCCCN(CCO)CCCCCCCC(=O)OC(CCCCCCCC)CCCCCCCC [SM-102, reference compound]", "Cell survival rate (%)": 68.17}
{"molecule": "CCCCCCC(CCCCCC)CCOC(=O)CCCCCN(CCO)CCCCCC(=O)OCCSCCCC", "Cell survival rate (%)": 9.82}
{"molecule": "CCCCCCCCCCOC(=O)CCCN(CCCCCC(=O)OCCC(CCCCCC)CCCCCC)CCC(C)(C)O", "Cell survival rate (%)": 80.27}
{"molecule": "CCCCCCCCCC(=O)OCCCCN(CCO)CCCCCC(=O)OCCC(CCCCCC)CCCCCC", "Cell survival rate (%)": 69.45}
{"molecule": "CCCCCCCCCCOC(=O)CCCN(CCO)CCCCCC(=O)OCCC(CCCCCC)CCCCCC", "Cell survival rate (%)": 90.12}
{"molecule": "CCCCCCCCCCCCC(O)CN(C)CCCCCC(=O)OCC(CCCCCC)CCCCCCCC (stereo not shown) [HHMA, reference compound]", "Cell survival rate (%)": 67.77}
{"molecule": "CCCCCCCCCCOC(=O)CCCN(CCCO)CCCCCC(=O)OCC(CCCCCCCC)CCCCCCCC", "Cell survival rate (%)": 90.45}
{"molecule": "CCCCCCCCC(CCCCCC)C(=O)OCCCCCCN(CCCCO)CCCCCCOC(=O)C(CCCCCC)CCCCCCCC (stereo not shown) [ALC-0315, reference compound]", "Cell survival rate (%)": 51.02}
{"molecule": "CCCCCCCCCCOC(=O)CCCN(CCCCCC(=O)OCCC(CCCCCC)CCCCCC)CCOC(=O)CCCN(C)C", "Cell survival rate (%)": 35.39}
{"molecule": "CCCCCCCCC(CCCCCCCC)OC(=O)CCCCCCCN(CCO)CCCCCCCC(=O)OCCC(CCCCCC)CCCCCC [Compound 21, reference compound]", "Cell survival rate (%)": 68.53}
{"molecule": "CCCCCCCCCCCOC(=O)CCCN(CCO)CCCCCCC(=O)OCCC(CCCCCC)CCCCCC", "Cell survival rate (%)": 89.86}
{"molecule": "CCCCCCCCCCOC(=O)CCCN(CCCCCC(=O)OCC(CCCCCCCC)CCCCCCCC)CCOC(=O)CCCN(C)C", "Cell survival rate (%)": 25.03}
{"molecule": "CCCCCCCCCCOC(=O)CCCN(CCCCCC(=O)OCCC(CCCCCC)CCCCCC)CCOCCOCCO", "Cell survival rate (%)": 73.11}
{"molecule": "CCCCCCCCCCOC(=O)CCCN(CCCCCC(=O)OCCC(CCCCCC)CCCCCC)C[C@H](C)O", "Cell survival rate (%)": 57.93}

Each recorded value in this set is attributed to patent US20260008746A1.
